Molecular target: T1, recombinant human FGF23 (R179Q) (human, UniProt Q9GZV9 25-251)
T1 construct: also called rhFGF23(R179Q); hFGF23(R179Q)
T1 sequence (looked up): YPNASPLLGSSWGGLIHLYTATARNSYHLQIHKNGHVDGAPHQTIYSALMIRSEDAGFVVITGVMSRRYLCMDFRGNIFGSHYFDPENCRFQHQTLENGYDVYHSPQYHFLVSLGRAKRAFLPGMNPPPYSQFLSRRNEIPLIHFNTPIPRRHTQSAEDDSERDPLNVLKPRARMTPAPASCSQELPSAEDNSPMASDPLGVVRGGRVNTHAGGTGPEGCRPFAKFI
Experiment: SPR, antibody captured on hIgG chip, rhFGF23(R179Q) analyte
parameter_measured: koff (s⁻¹)
Write it as a number; the unit s⁻¹ goes unstated.

The measured koff associated with UGX156 (antibody, human IgG1, kappa, V domains shown, also called HC:I54F; I54F) VH: QVQLVQSGAEVKKPGASVKVSCKASGYTFTNHYMHWVRQAPGQGLEWMGIINPFSGSTSNAQKFQGRVTMTRDTSTSTVYMELSSLRSEDTAVYYCARDIVDAFDFWGQGTMVTVSS VL: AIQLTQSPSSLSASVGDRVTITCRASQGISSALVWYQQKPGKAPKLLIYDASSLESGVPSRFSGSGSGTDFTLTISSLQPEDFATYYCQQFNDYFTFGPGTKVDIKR reads 6.25e-05

The measured koff associated with UGX206 (antibody, human IgG1, kappa, V domains shown, also called HC:S59E, LC:Y94E; S59E/Y94E) VH: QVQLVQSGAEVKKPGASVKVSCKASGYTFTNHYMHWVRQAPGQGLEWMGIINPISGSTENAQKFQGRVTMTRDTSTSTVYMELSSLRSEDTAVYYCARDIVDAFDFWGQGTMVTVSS VL: AIQLTQSPSSLSASVGDRVTITCRASQGISSALVWYQQKPGKAPKLLIYDASSLESGVPSRFSGSGSGTDFTLTISSLQPEDFATYYCQQFNDEFTFGPGTKVDIKR reads 4.92e-05

The measured koff associated with UGX126 (antibody, human IgG1, kappa, V domains shown, also called LC:S52D; S52D) VH: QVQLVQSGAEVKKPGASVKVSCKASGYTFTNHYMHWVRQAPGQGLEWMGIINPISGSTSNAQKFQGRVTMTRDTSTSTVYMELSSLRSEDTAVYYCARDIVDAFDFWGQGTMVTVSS VL: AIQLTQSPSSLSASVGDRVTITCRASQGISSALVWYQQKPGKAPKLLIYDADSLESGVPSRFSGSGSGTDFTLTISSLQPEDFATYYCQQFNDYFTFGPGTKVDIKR reads 0.00013
